Assay procedure: Pharmacokinetic assessments in patient plasma
Type: in vivo, human
Experimental setup: human, plasma, oral, AUC, vatalanib alone, day 14, 24-hour dosing interval, mean ± SD
Readout name: AUC (ng·h/mL)
Report only the number, with the unit ng·h/mL understood.

Task item: Reported AUC for Clc1ccc(Nc2nnc(Cc3ccncc3)c3ccccc23)cc1 : what is it?
Reply: 26400

* * *

Assay procedure: Pharmacokinetic assessments in patient plasma
Assay type: in vivo, human
Experimental setup: human, plasma, oral, tmax, vatalanib after everolimus started, day 29, median (range)
Readout name: Tmax (h)
Report only the number, with the unit h understood.

Task item: Reported Tmax for Clc1ccc(Nc2nnc(Cc3ccncc3)c3ccccc23)cc1 : what is it?
Reply: 2
